Target: Wee-1 kinase (Homo sapiens (Human))
Assay: Measurement of Wee-1 kinase activity (ADP-Glo luminescence)
Assay type: biochemical
Details: read-out: Wee1 IC50
ASSAY_METRIC: IC50 (nM)

As a guide, the following entries are already answered.
CC(C)n1c(=O)c2cnc(N(c3ccc(C#N)cc3)c3ccc(C#N)cc3)nc2n1-c1cccc(N=S(C)(C)=O)n1 : 760
C=CCn1c(=O)c2cnc(Nc3ccc(N4CCNCC4)c(CO)c3)nc2n1-c1cccc(N=S(C)(C)=O)c1 : 0.9
C=CCn1c(=O)c2cnc(Nc3ccc(N4CCOCC4)cc3)nc2n1-c1nccc(N=S(C)(C)=O)n1 : 0.8
C=CCn1c(=O)c2cnc(Nc3ccc(N4C[C@@H]5C[C@H]4CO5)cc3)nc2n1-c1cccc(N=S(C)(C)=O)n1 : 0.3
C=CCn1c(=O)c2cnc(Nc3ccc(N4CCO[C@H](COC)C4)cc3)nc2n1-c1cccc(N=S(C)(C)=O)n1 : 0.3

(P) CC(C)n1c(=O)c2cnc(Nc3cccc(C(F)(F)F)c3)nc2n1-c1cccc(N=S(C)(C)=O)n1
(Q) C=CCn1c(=O)c2cnc(Nc3ccc(N4CCN(C(C)C)CC4)cc3)nc2n1-c1cccc(N=S(C)(C)=O)n1
input: Min IC50? P | Q Answer by stating the label of the chosen item.
output: Q

(a) C=CCn1c(=O)c2cnc(Nc3cccnc3)nc2n1-c1cccc(N=S(C)(C)=O)n1
(b) C=CCn1c(=O)c2cnc(Nc3ccc(F)nc3)nc2n1-c1cccc(N=S(C)(C)=O)n1
input: Of the two listed items, which has the higher IC50? First: a Second: b Answer by stating the label of the chosen item.
output: a

---

System: A498 cells
Assay: Cell viability (CellTiter-Glo), A498
Format: cell-based
Conditions: Homo sapiens, A498, 144 h; cell viability after 6 days
ASSAY_METRIC: pEC50
The meaning of pEC50 here: minus log10 of the concentration in molar units.

input: What value of pEC50 has been recorded for this entry: C=CCn1c(=O)c2cnc(Nc3ccc(N4CCN(C)CC4)cc3)nc2n1-c1cccc(N=S(C)(C)=O)n1
output: 7.60

input: Same for C=CCn1c(=O)c2cnc(Nc3ccc(N4CCO[C@H](COC)C4)cc3)nc2n1-c1cccc(N=S(C)(C)=O)n1
output: 7.80

input: Same for C=CCn1c(=O)c2cnc(Nc3ccc(N4CCOCC4)cc3)nc2n1-c1cccc(N=S(C)(C)=O)n1
output: 7.57

---

Molecular target: Wee-1 kinase (Homo sapiens (Human))
Assay: Measurement of Wee-1 kinase activity (ADP-Glo luminescence)
Assay type: biochemical
Details: Table 5; data obtained as described in the experimental section of the current invention; read-out: Wee-1/nM
ASSAY_METRIC: IC50 (nM)
Record the value in nM, omitting the unit from your answer.

input: What value of IC50 has been recorded for this entry: C=CCn1c(=O)c2cnc(Nc3ccc(N4CCN(C)CC4)cc3)nc2n1-c1cccc(N=S(C)(C)=O)n1 [Example 5]
output: 1.2

---

Biological target: Wee-1 kinase (Homo sapiens (Human))
Test: Measurement of Wee-1 kinase activity (ADP-Glo luminescence)
Type: biochemical
Conditions: read-out: Wee1 IC50
pIC50: −log10 of the molar value.
ASSAY_METRIC: pIC50

C=CCn1c(=O)c2cnc(Nc3ccc(N4CCNCC4)cc3)nc2n1-c1cccc(N=S(C)(C)=O)c1 [Example 18] : 9.10

(a) CC(C)n1c(=O)c2cnc(Nc3ccc(C(F)(F)F)cc3)nc2n1-c1cccc(N=S(C)(C)=O)n1 [Example 72]
(b) C=CCn1c(=O)c2cnc(Nc3ccc(N4CCN(CC)CC4)cc3)nc2n1-c1cccc(N=S(C)(C)=O)n1 [Example 10]
input: Min pIC50? a | b Answer by stating the label of the chosen item.
output: a

(P) C=CCn1c(=O)c2cnc(Nc3cccc(N4CCOCC4)c3)nc2n1-c1cccc(N=S(C)(C)=O)n1 [Example 35]
(Q) C=CCn1c(=O)c2cnc(NC34CC(C3)C4)nc2n1-c1cccc(N=S(C)(C)=O)n1 [Example 63]
input: Of the two listed items, which has the higher pIC50? First: P Second: Q Answer by stating the label of the chosen item.
output: P

---

Target: Wee-1 kinase (Homo sapiens (Human), UniProt P30291)
Sequence (P30291 whole entry): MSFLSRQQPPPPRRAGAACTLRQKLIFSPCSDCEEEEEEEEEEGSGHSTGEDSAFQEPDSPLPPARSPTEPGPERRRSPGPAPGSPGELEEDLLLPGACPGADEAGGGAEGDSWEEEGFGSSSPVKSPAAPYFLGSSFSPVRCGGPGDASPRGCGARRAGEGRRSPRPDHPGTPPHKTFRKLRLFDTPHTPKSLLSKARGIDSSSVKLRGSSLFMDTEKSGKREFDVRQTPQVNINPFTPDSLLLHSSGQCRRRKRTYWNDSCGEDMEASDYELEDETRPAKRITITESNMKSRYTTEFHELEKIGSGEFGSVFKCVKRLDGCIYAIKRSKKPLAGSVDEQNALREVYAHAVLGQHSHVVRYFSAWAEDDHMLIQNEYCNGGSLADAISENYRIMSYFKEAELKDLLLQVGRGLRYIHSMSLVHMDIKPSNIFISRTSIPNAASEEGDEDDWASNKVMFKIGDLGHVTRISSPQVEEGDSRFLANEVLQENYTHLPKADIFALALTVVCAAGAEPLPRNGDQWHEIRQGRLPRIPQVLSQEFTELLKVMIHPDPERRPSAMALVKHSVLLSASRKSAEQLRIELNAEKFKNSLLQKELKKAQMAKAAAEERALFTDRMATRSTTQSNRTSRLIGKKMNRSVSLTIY
Assay: Measurement of Wee-1 kinase activity (ADP-Glo luminescence)
Format: biochemical
Conditions: read-out: Wee1 IC50
pIC50: −log10 of the molar value.
ASSAY_METRIC: pIC50

As a guide, the following entries are already answered.
C=CCn1c(=O)c2cnc(Nc3ccc(N4CCN(C)CC4)c(C)c3)nc2n1-c1cccc(N=S(C)(C)=O)n1 : 9.15
C=CCn1c(=O)c2cnc(Nc3ccc(C(F)(F)F)nc3)nc2n1-c1cccc(N=S(C)(C)=O)n1 : 8.89
COC[C@@H]1CN(c2ccc(Nc3ncc4c(=O)n(C(C)C)n(-c5cccc(N=S(C)(C)=O)n5)c4n3)cc2)CCO1 : 9.30

(A) C=CCn1c(=O)c2cnc(Nc3ccc(OCCNC)cc3)nc2n1-c1cccc(N=S(C)(C)=O)c1
(B) C=CCn1c(=O)c2cnc(Nc3cnn(C(C)C)c3)nc2n1-c1cccc(N=S(C)(C)=O)n1
(C) CC(C)n1c(=O)c2cnc(Nc3ccc(F)cc3)nc2n1-c1cccc(N=S(C)(C)=O)n1
(D) C=CCn1c(=O)c2cnc(Nc3ccc(N4CCN(C)CC4)cc3)nc2n1-c1cccc(N=S2(=O)CCCC2)n1
input: Give the ascending ranking of the items by reported pIC50. Form entry: labels listed in requested order.
output: C, A, D, B

---

Molecular target: Wee-1 kinase (Homo sapiens (Human), UniProt P30291)
Assay: Measurement of Wee-1 kinase activity (ADP-Glo luminescence)
Format: biochemical
Conditions: read-out: Wee1 IC50
ASSAY_METRIC: IC50 (nM)

As a guide, the following entries are already answered.
C=CCn1c(=O)c2cnc(Nc3cnn(CC(F)(F)F)c3)nc2n1-c1cccc(N=S(C)(C)=O)n1 : 0.6
C=CCn1c(=O)c2cnc(Nc3ccc(N4CCOCC4)cc3)nc2n1-c1cncc(N=S(C)(C)=O)n1 : 0.6
CS(C)(=O)=Nc1cccc(-n2c3nc(Nc4ccc(N5CCOCC5)cc4)ncc3c(=O)n2CC2CC2)n1 : 8.8
C=CCn1c(=O)c2cnc(Nc3ccc(N4CCOCC4)cc3)nc2n1-c1cccc(N=S(C)(C)=O)n1 : 0.5

(P) CC(C)n1c(=O)c2cnc(Nc3ccc(N4CCOCC4)cc3)nc2n1-c1cccc(N=S(C)(C)=O)n1
(Q) CC(C)n1c(=O)c2cnc(Nc3ccc(N4CCCNCC4)cc3)nc2n1-c1cccc(N=S(C)(C)=O)n1
(R) C=CCn1c(=O)c2cnc(Nc3ccc(N4CCC(F)(F)CC4)cc3)nc2n1-c1cccc(N=S(C)(C)=O)n1
input: Order the records so the highest IC50 appears first and the lowest last. Form entry: labels listed in requested order.
output: R, Q, P

---

System: phosphorylation of Cdc2 at Tyr15
Assay: ELISA for phosphorylation of Cdc2 at Tyr15 in HT-29 / HCT-116 cells
Format: cell-based
Conditions: Homo sapiens; Table 6; Present Invention; read-out: ELISA/nM
ASSAY_METRIC: EC50 (nM)
Record the value in nM, omitting the unit from your answer.

input: What value of EC50 has been recorded for this entry: CC(C)n1c(=O)c2cnc(Nc3ccc(N4CCN(C)CC4)cc3)nc2n1-c1cccc(N=S(C)(C)=O)n1
output: 47

---

Target: UniProt:P30291
Test: Measurement of Wee-1 kinase activity (ADP-Glo luminescence)
Assay type: biochemical
Conditions: read-out: Wee1 IC50
ASSAY_METRIC: IC50 (nM)

As a guide, the following entries are already answered.
C=CCn1c(=O)c2cnc(Nc3ccc4c(c3)CN(C)CC43CC3)nc2n1-c1cccc(N=S(C)(C)=O)n1 : 0.9
C=CCn1c(=O)c2cnc(Nc3ccc(N4CCN(C5CC5)CC4)cc3)nc2n1-c1cccc(N=S(C)(C)=O)n1 : 0.3
C=CCn1cc(Nc2ncc3c(=O)n(CC=C)n(-c4cccc(N=S(C)(C)=O)n4)c3n2)cn1 : 0.8

(I) C=CCn1c(=O)c2cnc(Nc3ccc(N4CCN(C)CC4)cc3)nc2n1-c1cccc(S(C)(=O)=NC#N)n1 (stereo not shown)
(II) C=CCn1c(=O)c2cnc(Nc3ccc(N4CCNCC4)c(C)c3)nc2n1-c1cccc(N=S(C)(C)=O)n1
input: Min IC50? I | II Answer by stating the label of the chosen item.
output: II
(II: 0.4 nM, I: 1.1 nM)

(A) C=CCn1c(=O)c2cnc(Nc3ccc(N4CCN(C)CC4)c(OC)c3)nc2n1-c1cccc(N=S(C)(C)=O)n1
(B) C=CCn1c(=O)c2cnc(Nc3ccc(N4CCN(C)CC4)c(CO)c3)nc2n1-c1cccc(N=S(C)(C)=O)c1
input: Min IC50? A | B Answer by stating the label of the chosen item.
output: B
(B: 0.5 nM, A: 1.4 nM)

Reference source for all entries: patent US10766902B2
